assay: In vivo pharmacokinetics in CD-1 mice; design: species or system mouse; details: male, CD-1, mouse, plasma, po, 20 mg/kg, oral 20 mg/kg, suspension 1% Tween 80:1% carboxymethylcellulose in water; read-out: oral bioavailability (F)
ASSAY METRIC: bioavailability (%)

INSERT INTO assay_data (smiles_repr, assay_metric, recorded_result) VALUES
  ('CC(C)CCOC1=CC(=O)c2ccccc2C1=O', 'bioavailability', 40.3);

* * *

assay: In vivo pharmacokinetics in CD-1 mice; set-up: species or system mouse; settings: male, CD-1, mouse, plasma; intravenous; 3 and 25 at 5 mg/kg
ASSAY METRIC: C0 (ng/mL)

INSERT INTO measurements (compound, assay_metric, reading_unit, recorded_result) VALUES
  ('CC(C)CCOC1=CC(=O)c2ccccc2C1=O [Compound 25, 2-(Isopentyloxy)naphthalene-1,4-dione]', 'C0', 'ng/mL', 1600),
  ('CCC#CCNC1=CC(=O)c2ccccc2C1=O [Compound 3]', 'C0', 'ng/mL', 1520);

* * *

compounds and their reported fraction unbound
assay: Brain tissue binding; assay type: in vitro ADME; conditions: in vitro, read-out: Brain tissue binding (% bound)
ASSAY METRIC: fraction unbound

INSERT INTO results (compound, assay_metric, recorded_result) VALUES
  ('CCC#CCNC1=CC(=O)c2ccccc2C1=O [Compound 3]', 'fraction unbound', '0.02 to 0.03'),
  ('CC(C)CCNC1=CC(=O)c2ccccc2C1=O [Compound 17, 2-(Isopentylamino)naphthalene-1,4-dione]', 'fraction unbound', '0.02 to 0.03');

* * *

Tested on: HT22 cells
Experiment: HT22 oxytosis (glutamate-induced cell death) neuroprotection assay
Assay type: cell-based, mouse
Settings: HT22 cells, 10 mM Glu
Experimental: The HT22 murine hippocampal cell system was chosen as an initial phenotypic screen for neuroprotective efficacy (Andreux et al., 2013; Andreux et al., 2014; Ohlow et al., 2017; Schubert and Maher, 2012). […] Consistent with that work, most of the 2-amino compounds achieved protection of HT22 cells against glutamate-induced oxytosis in the nM to μM range. […] Neuroprotection based on relative cell viability compared to +Glu and −Glu control cells was measured. […]
pEC50: −log10 of the molar value.
ASSAY METRIC: pEC50

INSERT INTO assay_data (smiles_repr, recorded_result) VALUES
  ('CC(C)=CCC/C(C)=C/CNC1=CC(=O)c2ccccc2C1=O', '~5.05');

* * *

experiment: In vivo pharmacokinetics in CD-1 mice; design: species or system mouse; settings: male, CD-1, mouse, plasma, iv, 5 mg/kg, intravenous 5 mg/kg, 20% DMA: 40% PEG300: 40% H2O
ASSAY METRIC: AUC(0-t) (ng·h/mL)

INSERT INTO assay_data (smiles_repr, assay_metric, recorded_result) VALUES
  ('CCC#CCNC1=CC(=O)c2ccccc2C1=O', 'AUC(0-t)', 421);

* * *

Test: In vivo pharmacokinetics in CD-1 mice
Design: species or system mouse
Details: male, CD-1, mouse, plasma, po, 20 mg/kg, oral 20 mg/kg, 5% DMSO: 95% Neobee; read-out: Cmax
Procedure: PK studies on 3 and 25 were carried out in CD-1 mice. Three males were dosed via oral gavage needle for oral administration at 20 mg/kg (10 mL/kg) or via intravenous administration at 5 mg/kg (10 mL/kg). Blood samples were taken at time intervals between 5 min and 24 hr from each animal. […] Plasma concentrations were measured as described above to determine a concentration vs. time profile. The area under the plasma concentration vs time curve (AUC) was calculated using the linear trapezoidal method. […]
ASSAY METRIC: Cmax (ng/mL)

INSERT INTO measurements (smiles_repr, reading_unit, recorded_result) VALUES
  ('CCC#CCNC1=CC(=O)c2ccccc2C1=O', 'ng/mL', 90.2);
